Target: human ALK2 R206H (Homo sapiens, UniProt Q04771, R206H)
Assay: Cell-based ALK2-R206H cell activity assay (Smad1-Ser463/Ser465 phosphorylation by AlphaLISA in HEK293-ALK2-R206H cells)
Conditions: phospho-Smad1 AlphaLISA, read-out: Cell Line (Cell Assay, IC50 class)
Procedure: Example 11. Cell-Based ALK2-R206H Cell Activity Assay […] After 2-3 hours of incubation with test compound or control, the cells were lysed and signal was developed using ALPHASCREEN® SUREFIRE® SMAD1 (p-Ser463/465) cellular kinase assay kit (PerkinElmer, Cat No. TGRSM1S10K) following the manufacturer's recommended protocol. The microplates were read using Perkin Elmer ENVISION® plate reader (emission 520-620 nM). […]
pIC50: −log10 of the molar value.
valueType: pIC50

[[record]]
entrysmiles = "CCN1CCN(c2ccc(-c3cc4c(N5CCN(C(=O)C6CC6)CC5)ccnc4[nH]3)c(F)c2)CC1"
reportedmeasurement = "≥ 7.00"

[[record]]
entrysmiles = "CCN1CCN(c2ccc(-c3cc4c(N5CCN(C(=O)C6CC6)CC5)ccnc4[nH]3)nc2)CC1"
reportedmeasurement = "≥ 7.00"

[[record]]
entrysmiles = "Cn1cc(-c2[nH]c3nccc(N4CCN(C(=O)OC5COC5)CC4)c3c2C#N)cn1"
reportedmeasurement = "≥ 7.00"

[[record]]
entrysmiles = "CCOC(=O)N1CCN(c2ccnc3[nH]c(-c4ccc(C)cn4)cc23)CC1"
reportedmeasurement = "6.30 to 7.00"


###

Molecular target: human ALK2 R206H (Homo sapiens, UniProt Q04771, R206H)
Assay: Cell-based ALK2-R206H cell activity assay (Smad1-Ser463/Ser465 phosphorylation by AlphaLISA in HEK293-ALK2-R206H cells)
Conditions: phospho-Smad1 AlphaLISA, read-out: Cell Line (Cell Assay, IC50 class)
pIC50: −log10 of the molar value.
# pIC50 values compiled below
valueType: pIC50

[[record]]
compound = "Cn1cc(-c2cc3c(N4CCN(C(=O)OCCC(F)(F)F)CC4)ccnc3[nH]2)cn1"
valuetype = "pIC50"
reportedmeasurement = "6.30 to 7.00"

[[record]]
compound = "CCOC(=O)N1CCN(c2ccnc3[nH]c(-c4cnn(C)c4)c(Cl)c23)CC1"
valuetype = "pIC50"
reportedmeasurement = "≥ 7.00"

[[record]]
compound = "COC1(c2ccc(-c3cc4c(N5CCN(C(=O)OC6COC6)CC5)ccnc4[nH]3)nc2)CCN(C[C@H](C)F)CC1"
valuetype = "pIC50"
reportedmeasurement = "≥ 7.00"

[[record]]
compound = "O=C(OC1COC1)N1CCN(c2ccnc3[nH]c(-c4ccc([C@@]5(O)CCOC5)cc4)cc23)CC1"
valuetype = "pIC50"
reportedmeasurement = "≥ 7.00"

[[record]]
compound = "Cn1cnc(-c2cc3c(N4CCN(C(=O)OCC(F)F)CC4)ccnc3[nH]2)c1"
valuetype = "pIC50"
reportedmeasurement = "≥ 7.00"

[[record]]
compound = "CCOC(=O)N1CCN(c2ccnc3[nH]c(-c4cccc(C)n4)cc23)CC1"
valuetype = "pIC50"
reportedmeasurement = "6.30 to 7.00"

[[record]]
compound = "O=C(C1CC1)N1CCN(c2ccnc3[nH]c(-c4cnn(C5CCC5)c4)cc23)CC1"
valuetype = "pIC50"
reportedmeasurement = "6.30 to 7.00"

[[record]]
compound = "Cn1cnc(-c2cc3c(N4CCN(C(=O)OC5CCC5)CC4)ccnc3[nH]2)c1"
valuetype = "pIC50"
reportedmeasurement = "≥ 7.00"

[[record]]
compound = "NC1(c2ccc(-c3cc4c(N5CCN(C(=O)C6CC6)CC5)ccnc4[nH]3)cc2)CC1"
valuetype = "pIC50"
reportedmeasurement = "≥ 7.00"

[[record]]
compound = "Cc1nn(C(C)C)cc1-c1cc2c(N3CCN(C(=O)[C@H]4CC[C@H](C#N)CC4)CC3)ccnc2[nH]1"
valuetype = "pIC50"
reportedmeasurement = "≥ 7.00"

[[record]]
compound = "CCN1CCC(c2ccc(-c3cc4c(N5CCN(C(=O)C6CC6)CC5)ccnc4[nH]3)cc2)C(F)C1 (stereo not shown)"
valuetype = "pIC50"
reportedmeasurement = "≥ 7.00"

[[record]]
compound = "O=C(C1CC1)N1CCN(c2ccnc3[nH]c(-c4ccc(C5(F)CCCNC5)cc4)cc23)CC1 (stereo not shown)"
valuetype = "pIC50"
reportedmeasurement = "≥ 7.00"

[[record]]
compound = "O=C(C1CC1)N1CCN(c2ccnc3[nH]c(-c4ccc(C5CCN(C6COC6)CC5)cc4)cc23)CC1"
valuetype = "pIC50"
reportedmeasurement = "≥ 7.00"

[[record]]
compound = "CCOC(=O)N1CCN(c2ccnc3[nH]c(-c4cnn(C)c4CC)cc23)CC1"
valuetype = "pIC50"
reportedmeasurement = "6.30 to 7.00"

[[record]]
compound = "O=C(OC1COC1)N1CCN(c2ccnc3[nH]c(-c4ccc(C5(O)CCC5)cc4)cc23)CC1"
valuetype = "pIC50"
reportedmeasurement = "≥ 7.00"

[[record]]
compound = "CCNC(=O)c1nc(-c2cc3c(N4CCN(C(=O)OC5COC5)CC4)ccnc3[nH]2)cs1"
valuetype = "pIC50"
reportedmeasurement = "6.30 to 7.00"


###

# IC50 values compiled below
Target: ALK2R206H (mutant ALK2, N-terminally tagged with GST) (Homo sapiens, UniProt Q04771, R206H)
Sequence (Q04771 21-509 R206H): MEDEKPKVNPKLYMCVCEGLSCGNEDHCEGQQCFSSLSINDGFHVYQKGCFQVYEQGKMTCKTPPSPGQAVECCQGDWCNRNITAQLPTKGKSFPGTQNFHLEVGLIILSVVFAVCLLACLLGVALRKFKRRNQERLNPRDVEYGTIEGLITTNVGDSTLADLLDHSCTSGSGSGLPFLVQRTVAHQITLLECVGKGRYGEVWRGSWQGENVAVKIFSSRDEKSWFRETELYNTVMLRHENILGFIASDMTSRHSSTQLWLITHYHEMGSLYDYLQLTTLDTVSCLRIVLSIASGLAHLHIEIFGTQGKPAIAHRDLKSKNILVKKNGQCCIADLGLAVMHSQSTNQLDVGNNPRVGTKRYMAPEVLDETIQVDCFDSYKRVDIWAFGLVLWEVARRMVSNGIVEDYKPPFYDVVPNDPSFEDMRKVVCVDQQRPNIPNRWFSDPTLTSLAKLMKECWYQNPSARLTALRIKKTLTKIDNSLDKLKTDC
Experiment: ALK binding assay (LANTHASCREEN TR-FRET competitive binding, displacement of Kinase Tracer 178)
Settings: read-out: Binding Assay (IC50 class)
valueType: IC50

[[record]]
compound = "O=C(C1CC1)N1CCN(c2ccnc3[nH]c(-c4ccc(Oc5ccccc5)cc4)cc23)CC1 [Compound 361]"
reportedmeasurement = "10 to 50 nM"

[[record]]
compound = "O=C(C1CC1)N1CCN(c2ccnc3[nH]c(-c4ccc(OC5CCC5)cc4)cc23)CC1 [Compound 273]"
reportedmeasurement = "≤ 10 nM"

[[record]]
compound = "CCOC(=O)N1CCN(c2ccnc3[nH]c(-c4cc(C)n(C)n4)cc23)CC1 [Compound 39]"
reportedmeasurement = "≤ 10 nM"

[[record]]
compound = "COCCOc1ccc(-c2cc3c(N4CCN(C(=O)C5CC5)CC4)ccnc3[nH]2)cc1 [Compound 286]"
reportedmeasurement = "≤ 10 nM"


###

Target: ALK2R206H (mutant ALK2, N-terminally tagged with GST) (Homo sapiens, UniProt Q04771, R206H)
Sequence (Q04771 21-509 R206H): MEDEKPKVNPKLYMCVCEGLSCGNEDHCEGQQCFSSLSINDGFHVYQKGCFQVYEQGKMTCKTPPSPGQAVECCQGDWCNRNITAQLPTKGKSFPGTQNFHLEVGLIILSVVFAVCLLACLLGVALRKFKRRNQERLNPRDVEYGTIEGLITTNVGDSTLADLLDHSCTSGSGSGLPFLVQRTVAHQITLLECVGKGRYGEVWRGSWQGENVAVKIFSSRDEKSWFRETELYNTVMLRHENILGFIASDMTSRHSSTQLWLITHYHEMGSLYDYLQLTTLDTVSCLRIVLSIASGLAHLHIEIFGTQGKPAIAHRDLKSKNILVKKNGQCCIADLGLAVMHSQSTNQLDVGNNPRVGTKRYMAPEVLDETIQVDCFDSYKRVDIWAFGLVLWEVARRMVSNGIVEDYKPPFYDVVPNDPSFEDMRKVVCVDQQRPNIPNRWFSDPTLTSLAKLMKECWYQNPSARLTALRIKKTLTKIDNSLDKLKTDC
Assay: ALK binding assay (LANTHASCREEN TR-FRET competitive binding, displacement of Kinase Tracer 178)
Details: read-out: Binding Assay (IC50 class)
# IC50 values compiled below
valueType: IC50

[[record]]
compound = "O=C(C1CC1)N1CCN(c2ccnc3[nH]c(-c4ccc(C5CCNCC5F)cc4)cc23)CC1 (stereo not shown)"
valuetype = "IC50"
reportedmeasurement = "≤ 10 nM"

[[record]]
compound = "Cc1coc(-c2cc3c(N4CCN(C(=O)OC5COC5)CC4)ccnc3[nH]2)n1"
valuetype = "IC50"
reportedmeasurement = "10 to 50 nM"

[[record]]
compound = "O=C(C1CC1)N1CCN(c2ccnc3[nH]c(-c4ccc(C5(O)COC5)cc4)cc23)CC1"
valuetype = "IC50"
reportedmeasurement = "≤ 10 nM"

[[record]]
compound = "Cn1cc(-c2[nH]c3nccc(N4CCN(C(=O)[C@H]5C[C@H](C#N)C5)CC4)c3c2Cl)cn1"
valuetype = "IC50"
reportedmeasurement = "≤ 10 nM"

